Target: BRSK1 (Homo sapiens)
Construct: lines 1-140) and Reaction Biology
Sequence (Q8TDC3 whole entry): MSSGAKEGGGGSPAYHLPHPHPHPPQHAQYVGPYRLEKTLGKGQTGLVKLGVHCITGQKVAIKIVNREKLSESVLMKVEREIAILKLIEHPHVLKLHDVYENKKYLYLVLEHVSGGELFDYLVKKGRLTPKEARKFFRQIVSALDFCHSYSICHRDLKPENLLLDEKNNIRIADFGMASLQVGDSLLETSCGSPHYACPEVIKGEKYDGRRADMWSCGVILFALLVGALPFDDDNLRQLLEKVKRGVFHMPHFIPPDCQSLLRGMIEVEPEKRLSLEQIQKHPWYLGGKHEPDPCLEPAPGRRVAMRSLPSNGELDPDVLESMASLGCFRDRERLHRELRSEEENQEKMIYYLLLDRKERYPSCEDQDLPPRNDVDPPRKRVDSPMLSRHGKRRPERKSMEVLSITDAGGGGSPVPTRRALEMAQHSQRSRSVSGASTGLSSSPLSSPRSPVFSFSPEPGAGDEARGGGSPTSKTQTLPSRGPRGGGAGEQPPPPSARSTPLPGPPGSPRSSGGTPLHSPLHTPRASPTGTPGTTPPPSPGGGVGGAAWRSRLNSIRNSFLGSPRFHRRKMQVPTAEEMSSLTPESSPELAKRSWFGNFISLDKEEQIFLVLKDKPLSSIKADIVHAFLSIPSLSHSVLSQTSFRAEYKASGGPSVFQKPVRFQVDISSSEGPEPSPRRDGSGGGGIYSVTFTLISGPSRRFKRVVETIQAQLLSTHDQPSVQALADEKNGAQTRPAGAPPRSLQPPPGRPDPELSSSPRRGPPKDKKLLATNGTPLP
Assay: Dundee kinase panel
Format: biochemical
Conditions: read-out: residual activity
VALUE TYPE: remaining activity at 1 µM (%)
Numbers only here, please. The scale is %.

So for `O=C1Cc2c([nH]c3ccc(Br)cc23)-c2ccccc2N1` , the logged remaining activity at 1 µM turned out to be 55

So for `Oc1ncnc2c1c(-c1ccccc1)cn2-c1ccccc1` , the logged remaining activity at 1 µM turned out to be 84

So for `O=C1Nc2ccc(I)cc2/C1=C/c1cc(Br)c(O)c(Br)c1` , the logged remaining activity at 1 µM turned out to be 68

So for `COCCOc1ccc(-c2cn(-c3ccccc3)c3nc[nH]c(=O)c23)cc1` , the logged remaining activity at 1 µM turned out to be 97
